Sequence of the target: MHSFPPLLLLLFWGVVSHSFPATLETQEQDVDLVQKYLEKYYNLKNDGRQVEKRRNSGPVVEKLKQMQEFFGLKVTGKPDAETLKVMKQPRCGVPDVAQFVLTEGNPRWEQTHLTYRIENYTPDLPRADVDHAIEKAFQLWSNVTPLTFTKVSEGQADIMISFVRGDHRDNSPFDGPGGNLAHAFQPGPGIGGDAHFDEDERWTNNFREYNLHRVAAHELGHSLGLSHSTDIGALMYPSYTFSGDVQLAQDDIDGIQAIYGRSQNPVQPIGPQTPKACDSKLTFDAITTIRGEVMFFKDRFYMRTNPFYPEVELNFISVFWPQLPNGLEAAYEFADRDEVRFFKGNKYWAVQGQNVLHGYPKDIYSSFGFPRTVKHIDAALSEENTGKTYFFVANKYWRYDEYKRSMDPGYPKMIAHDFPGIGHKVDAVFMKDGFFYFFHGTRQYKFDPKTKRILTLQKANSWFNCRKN
Note to self: these molecules have Ki reported for the protein given by its sequence in various publications.

Please review the following examples before continuing.
COMPOUND SMILES	Ki
CONC(=O)[C@H]1CCCN(C)[C@@H]1C(=O)Nc1ccc(OCc2cc(C)nc3ccccc23)cc1	> 4900 nM
CNC(=O)[C@H](Cc1ccccc1)NC(=O)[C@H](CC(C)C)[C@H](CSc1cccs1)C(=O)O	1500 nM
CC(C)C[C@H](CC(=O)NO)C(=O)N[C@@H](Cc1c[nH]c2ccccc12)C(=O)NCCSc1ccccc1	3 nM
O=C(NO)[C@H]1CCCC[C@@H]1C(=O)Nc1ccc(C#Cc2ccc3ncccc3c2)cc1	> 4950 nM
CC(C)C[C@H](CC(=O)NO)C(=O)N[C@@H](Cc1c[nH]c2ccccc12)C(=O)NCCCCC(=O)O	1 nM
CNC(=O)[C@H](CCCNC(=O)OC(C)(C)C)NC(=O)[C@H](CCCc1ccccc1)[C@@](C)(O)C(=O)NO	16 nM

What value of Ki on the protein given by its sequence does CC(=O)N1CCC[C@H]1C(=O)NCCCCP(=O)(O)C[C@@H](CCc1ccccc1)C(=O)N[C@@H](CC(C)C)C(=O)Nc1ccccc1 have? ≥ 10000 nM

Okay, and C[C@@H](N[C@@H](CCCCCCCCCN)C(=O)N[C@@H](CCCN=C(N)N)C(=O)Nc1ccccc1)C(=O)O ? > 10000 nM
